Data origin, for the record: a melting point compilation (Tetko et al.; mined from patent text by program, amines drawn as free bases though some values may be those of a salt)

A collection of molecules and their measured melting point

- molecule: "CCCc1c(OCCCC(=O)NCCCCCCc2cccnc2)ccc(C(C)=O)c1O"
  melting point: "69 to 71 °C"
- molecule: "CCCCCCCCCCCCCCCCCCCCCC(=O)Nc1ccn(C2OC(CO)C(O)C2O)c(=O)n1 (stereo unspecified)"
  melting point: "141 to 143 °C"
- molecule: "COc1ccc(C2=NNC(N)(C3CCN(Cc4ccccc4)CC3)c3cc(OC)ccc32)cc1 (stereo unspecified)"
  melting point: "150 °C"
- molecule: "CC(=O)c1ccc(C(=O)CCl)s1"
  melting point: "94 to 95 °C"
- molecule: "COC(=O)C(Cc1ccc(OS(=O)(=O)C(F)(F)F)c(OS(=O)(=O)C(F)(F)F)c1)NC(=O)OC(C)(C)C (stereo unspecified)"
  melting point: "80 to 82 °C"
- molecule: "O=C(c1ccccc1)N1CC(=O)N2CCc3ccccc3C2C1 (stereo unspecified)"
  melting point: "162 to 163 °C"
- molecule: "c1cn(Cc2ccc3c(c2)Cc2c(-c4ccsc4)n[nH]c2-3)cn1"
  melting point: "255 to 260 °C"
- molecule: "O=C1Nc2cccc(-c3ccc(O)cc3)c2/C1=C/c1ccc[nH]1"
  melting point: "271 to 273 °C"
- molecule: "CSc1ccc(O)cn1"
  melting point: "133 °C"
- molecule: "CCOC(=O)CCc1cn(-c2ccc(C(F)(F)F)cc2)nc1OCC"
  melting point: "47 to 48 °C"
- molecule: "Nc1nc(C2CCN(C(=O)c3ccccc3)CC2)c2cc(Cl)ccc2n1"
  melting point: "155 to 158 °C"
- molecule: "COc1ccc2c3c(c(=O)oc2c1OC)CN(Cc1ccccc1)CC3"
  melting point: "138 to 140 °C"
- molecule: "N#CCc1cccc2nnsc12"
  melting point: "78 to 80 °C"
- molecule: "O=C(Nc1ccc(SC(F)(F)F)cc1)c1cc(Cl)c2ccccc2c1O"
  melting point: "172 to 175 °C"
- molecule: "CCOC(=O)Cc1cccc(-c2nc(COc3ccc(COc4nn(-c5ccccc5)cc4C=O)cc3OC)c(C)o2)c1"
  melting point: "145 to 146 °C"
- molecule: "O=c1c(CO)cnc2c3ccccc3ccn12"
  melting point: "198 °C"
- molecule: "CC(=NOCCOc1ccc(CC2SC(=O)NC2=O)cc1)c1ccc(Cl)cc1 (stereo unspecified)"
  melting point: "118 to 119 °C"
- molecule: "CCOC(=O)c1ccc(C(C)=Cc2ccc3ccccc3c2)cc1"
  melting point: "96 °C"
- molecule: "O=C(c1ccc(Cl)cc1)c1cc([N+](=O)[O-])ccc1N1CCC(Cc2ccccc2)CC1"
  melting point: "211 °C"
- molecule: "Cc1ccc(C(=O)Nc2c[nH]nc2C(=O)NCCC#N)o1"
  melting point: "135 to 137 °C"
- molecule: "CS(=O)c1cc(CCC(=O)O)nc(-c2nc(=O)c3ccccc3s2)c1 (stereo unspecified)"
  melting point: "266 °C"
